Data origin: patent US20110300138A1

Target: T1, thyroid stimulating hormone receptor (full length human TSHR) (human, UniProt P16473 22-764)
T1 construct: Full length TSHR coated onto plastic tubes (TSHR coated tubes, as in WO2004/050708A2); also called TSH receptor
Experiment: competitor ^125I-K1-70 IgG, TSHR coated tubes; 0.001 µg/mL in HBD
Measured Inhibition of binding (%), listed per entry for reference.
MEASURED_ATTRIBUTE: Inhibition of binding (%)

[
  {
    "BINDER": "K1-70 IgG (antibody, V domains shown, Human IgG1 lambda purified from hetero-hybridoma supernatant) VH: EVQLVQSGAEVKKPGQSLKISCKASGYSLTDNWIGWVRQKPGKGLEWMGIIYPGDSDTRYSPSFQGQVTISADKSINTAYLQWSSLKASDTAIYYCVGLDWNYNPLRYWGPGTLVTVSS VL: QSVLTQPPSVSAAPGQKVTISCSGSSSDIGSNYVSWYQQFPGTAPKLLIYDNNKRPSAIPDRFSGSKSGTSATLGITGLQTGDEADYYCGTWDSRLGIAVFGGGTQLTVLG",
    "TEST_RESULT": -7.6
  },
  {
    "BINDER": "K1-18 Fab (Fab, V domains shown) VH: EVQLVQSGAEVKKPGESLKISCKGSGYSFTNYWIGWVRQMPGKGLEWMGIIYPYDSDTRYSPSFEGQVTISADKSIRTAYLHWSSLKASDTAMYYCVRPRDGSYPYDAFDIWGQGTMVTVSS VL: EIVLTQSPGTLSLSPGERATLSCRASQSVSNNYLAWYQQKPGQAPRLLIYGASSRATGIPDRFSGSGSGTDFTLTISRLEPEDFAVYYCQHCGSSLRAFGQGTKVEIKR",
    "TEST_RESULT": 0.5
  },
  {
    "BINDER": "K1-70 Fab (Fab, V domains shown) VH: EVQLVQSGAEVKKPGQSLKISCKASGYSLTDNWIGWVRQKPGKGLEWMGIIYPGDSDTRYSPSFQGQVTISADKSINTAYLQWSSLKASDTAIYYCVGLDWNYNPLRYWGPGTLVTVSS VL: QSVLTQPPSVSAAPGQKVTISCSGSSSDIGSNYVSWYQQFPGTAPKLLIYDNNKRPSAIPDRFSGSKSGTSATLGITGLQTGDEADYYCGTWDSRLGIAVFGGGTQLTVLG",
    "TEST_RESULT": -3.6
  },
  {
    "BINDER": "K1-18 IgG (antibody, V domains shown, Human IgG1 kappa purified from hetero-hybridoma supernatant; it is not part of the secreted protein; also called human monoclonal TSHR autoantibody K1-18 (stimulating)) VH: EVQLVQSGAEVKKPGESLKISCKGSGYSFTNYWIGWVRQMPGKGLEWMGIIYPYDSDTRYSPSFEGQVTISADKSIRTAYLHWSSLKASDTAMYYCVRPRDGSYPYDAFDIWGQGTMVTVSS VL: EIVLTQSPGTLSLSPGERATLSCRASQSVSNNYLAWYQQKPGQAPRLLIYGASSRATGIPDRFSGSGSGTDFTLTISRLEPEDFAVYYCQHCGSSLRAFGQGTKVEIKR",
    "TEST_RESULT": -3
  }
]
